Experiment: Stability test of crystal samples placed open in the air (illumination, heating, humidity), HPLC analysis
Format: physicochemical
Conditions: illumination 4500 Lux, open in air, Time 5 days; hydrochloride
Counter-ions that a name gives are not always drawn.
readoutKind: HPLC analysis result, Light (%)
Number only, in %; omit the unit.

Task item: Dear colleague, I am looking for the recorded HPLC analysis result, Light of the following compound: COc1cc2c(cc1OC)CC(=O)N(CCCN(C)C[C@H]1Cc3cc(OC)c(OC)cc31)CC2 [Ivabradine hydrochloride 20080908, Ivabradine hydrochloride]
Reply: 97.45

Task item: Dear colleague, I am looking for the recorded HPLC analysis result, Light of the following compound: COc1cc2c(cc1OC)CC(=O)N(CCCN(C)C[C@H]1Cc3cc(OC)c(OC)cc31)CC2 [Ivabradine hydrochloride 20080911, Ivabradine hydrochloride]
Reply: 98.88

Task item: Dear colleague, I am looking for the recorded HPLC analysis result, Light of the following compound: COc1cc2c(cc1OC)CC(=O)N(CCCN(C)C[C@H]1Cc3cc(OC)c(OC)cc31)CC2 [Ivabradine sulfate 20080618, Ivabradine hydrochloride]
Reply: 99.47

Task item: Dear colleague, I am looking for the recorded HPLC analysis result, Light of the following compound: COc1cc2c(cc1OC)CC(=O)N(CCCN(C)C[C@H]1Cc3cc(OC)c(OC)cc31)CC2 [Ivabradine hydrochloride 20080912, Ivabradine hydrochloride]
Reply: 99.29
